System: human LINE-1
Experiment: Human LINE-1 retrotransposition assay, related experiments with islatravir (pYX017, HeLa cells, Tables 12 and 13)
Assay type: cell-based
Conditions: Homo sapiens, HeLa; see Table 12; read-out: in vitro IC50 for human LINE-1 in cell-based assay
Protocol: In related experiments, islatravir and other compounds were tested for inhibition of retrotransposition activity of human LINE-1 in HeLa cells according to the following procedure. […] Assays were performed using reporter plasmid pYX017 as described (Xie, et al., 2011) with several modifications. […] Different cell plating densities were tested and a density of 2×10^3 cells was determined to be optimal. […]
pIC50: −log10 of the molar value.
test-readout: pIC50

INSERT INTO measurements (compound, observed_result) VALUES
  ('C#C[C@]1(CO)O[C@@H](n2cnc3c(N)nc(F)nc32)C[C@@H]1O [Islatravir, 2′-deoxy-4′-ethynyl-2-fluoroadenosine]', 8.89);
